Data origin: paper PMC10397247

Target: T1, 4H2642-AA
T1 chain: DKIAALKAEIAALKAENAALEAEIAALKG
Assay: two-hybrid library CCmax;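 further: natural log of median RNA to DNA barcode read ratio; higher means stronger binding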
Conditions: mean of both orientations
measured-attribute: interaction score

P: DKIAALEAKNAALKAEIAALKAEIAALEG [4H2505-AA]
Q: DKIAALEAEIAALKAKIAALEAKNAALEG [4H2151-AA]
R: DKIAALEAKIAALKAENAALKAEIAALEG [4H2393-AA]
Ask: Hey, can you sort those binders up there by interaction score, smallest first? Your answer should be the labels, listed in the requested order.
Reply: Q, P, R
(Q: -1.42, P: -0.234, R: 1.82)
